# TARGET OR TEST SYSTEM: human OX2R (Homo sapiens, UniProt O43614)
# Construct: expressed in transfected cells; host or cells: CHO (Chinese hamster ovary) cells, line CHOOX2R, co-expressing NFAT-luciferase
# Sequence (O43614 1-444): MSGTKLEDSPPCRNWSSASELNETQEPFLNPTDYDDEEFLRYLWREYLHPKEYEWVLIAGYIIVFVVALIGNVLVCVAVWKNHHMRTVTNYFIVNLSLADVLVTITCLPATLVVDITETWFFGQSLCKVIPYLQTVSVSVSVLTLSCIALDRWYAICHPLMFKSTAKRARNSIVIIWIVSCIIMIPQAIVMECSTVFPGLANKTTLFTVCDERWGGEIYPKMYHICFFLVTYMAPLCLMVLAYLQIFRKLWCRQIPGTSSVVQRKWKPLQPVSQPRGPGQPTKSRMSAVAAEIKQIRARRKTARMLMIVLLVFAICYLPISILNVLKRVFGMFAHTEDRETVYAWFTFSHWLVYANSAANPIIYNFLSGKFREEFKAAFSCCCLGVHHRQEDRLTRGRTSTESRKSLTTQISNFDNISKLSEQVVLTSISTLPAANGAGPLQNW
# PROTOCOL NOTES: Agonist activity against OX2R: intracellular calcium (Fura-2AM, FDSS7000) in CHOOX2R cells
# Format: cell-based
# CONDITIONS: test compound 0.1 μM; relative to orexin-A as full agonist (100%)
READOUT LABEL: Response (%) OX2R
Lab book: enter the figure in %, no units written.

Any idea what its Response (%) OX2R is? The compound is COc1ccc(C(=O)Nc2cccc(N(C)C)c2)cc1S(=O)(=O)Nc1cccc(NC(=O)Nc2cccc(N(C)C)c2)c1 [Example 106] 9

Any idea what its Response (%) OX2R is? The compound is CN(C)C(=O)c1cccc(-c2ccc(Cl)c(S(=O)(=O)Nc3cccc(NC(=O)Nc4cccc(N(C)C)c4)c3)c2)c1 [Example 118] 11

Any idea what its Response (%) OX2R is? The compound is COc1ccc(-c2cccc(C(=O)N(C)C)c2)cc1S(=O)(=O)Nc1cccc(N(C)C(=O)Nc2cccc(N(C)C)c2)c1 [Example 125] 42

Any idea what its Response (%) OX2R is? The compound is COc1ccc(-c2cccc(C(=O)N(C)C)c2)cc1S(=O)(=O)Nc1cccc(NC(=O)Nc2cccc(N(C)C)c2)n1 [Example 124] 9

Any idea what its Response (%) OX2R is? The compound is COc1ccc(C(=O)NCCCNC(=O)OC(C)(C)C)cc1S(=O)(=O)Nc1cccc(NC(=O)Nc2cccc(N(C)C)c2)c1 [Example 104] 7

Any idea what its Response (%) OX2R is? The compound is COc1ccc(-c2cccc(C(=O)N(C)C)c2)cc1S(=O)(=O)Nc1cccc(N(C)C(=O)N(C)c2cccc(N(C)C)c2)c1 [Example 126] 7

Any idea what its Response (%) OX2R is? The compound is COc1ccc(-c2cccc(C(=O)N(C)C)c2)cc1S(=O)(=O)Nc1cccc(N2CCN(c3ccc(N(C)C)cc3)C2=O)c1 [Example 131] 43

Any idea what its Response (%) OX2R is? The compound is COc1ccc(-c2cccc(C(=O)N(C)C)c2)cc1S(=O)(=O)Nc1cccc(N2CCCN(c3ccc(N(C)C)cc3)C2=O)c1 [Example 135] 94

Any idea what its Response (%) OX2R is? The compound is COc1ccc(-c2cccc(C(=O)N(C)C)c2)cc1S(=O)(=O)Nc1cccc(N2CCN(C(=O)c3cccc(C)c3)C2)c1 [Example 93] 16

Any idea what its Response (%) OX2R is? The compound is COc1ccc(-c2cccc(C(=O)N(C)C)c2)cc1S(=O)(=O)Nc1cccc(N=Nc2ccc(O)cc2NC(=O)OC(C)(C)C)c1 [Example 98] 13
